- Test system: Staphylococcus aureus 209 P JC-1
- experiment.description: Minimum Inhibitory Concentration (MIC), antibacterial spectrum in vitro
- Format: cell-based
- protocol.conditions: 209PJC1; Staphylococcus aureus 209 P JC-1; read-out: Minimum Inhibitory Concentration (MIC)
Structures can show the parent of a compound that is named as a salt.
parameter: MIC (µg/mL)
Please state the figure in µg/mL; there is no need to write the unit.

Record CC1OC2C(NC(=O)C(=NOC(C)(C)C(=O)O)c3csc(N)n3)C(=O)N2C(C(=O)[O-])=C1CSc1cc[n+](C)cc1 (stereo not drawn) [Compound 1, (Sodium Salt)] . Reported MIC: 1.56

Noted for CCN1CCN(C(=O)NC(C(=O)NC2C(=O)N3C(C(=O)[O-])=C(CSc4cc[n+](CC(=O)O)cc4)COC23)c2csc(N)n2)C(=O)C1=O (racemic) [Compound 21, (Sodium Salt)] : its MIC reads 1.56

So, C[n+]1ccc(SCC2=C(C(=O)[O-])N3C(=O)C(NC(=O)C(=NOC(C)(C)C(=O)O)c4csc(N)n4)C3OC2)cc1 (stereo not drawn) [Compound 14, (Sodium Salt)] ? Its MIC was 1.56
